- Measured On: HCV replicase complexes (Hepatitis C virus genotype 1b, UniProt Q9WMX2)
- Construct: viral non-structural proteins (NS3, NS4A, NS4B, NS5A and NS5B)
- Sequence (Q9WMX2 2420-3010, one chain of several): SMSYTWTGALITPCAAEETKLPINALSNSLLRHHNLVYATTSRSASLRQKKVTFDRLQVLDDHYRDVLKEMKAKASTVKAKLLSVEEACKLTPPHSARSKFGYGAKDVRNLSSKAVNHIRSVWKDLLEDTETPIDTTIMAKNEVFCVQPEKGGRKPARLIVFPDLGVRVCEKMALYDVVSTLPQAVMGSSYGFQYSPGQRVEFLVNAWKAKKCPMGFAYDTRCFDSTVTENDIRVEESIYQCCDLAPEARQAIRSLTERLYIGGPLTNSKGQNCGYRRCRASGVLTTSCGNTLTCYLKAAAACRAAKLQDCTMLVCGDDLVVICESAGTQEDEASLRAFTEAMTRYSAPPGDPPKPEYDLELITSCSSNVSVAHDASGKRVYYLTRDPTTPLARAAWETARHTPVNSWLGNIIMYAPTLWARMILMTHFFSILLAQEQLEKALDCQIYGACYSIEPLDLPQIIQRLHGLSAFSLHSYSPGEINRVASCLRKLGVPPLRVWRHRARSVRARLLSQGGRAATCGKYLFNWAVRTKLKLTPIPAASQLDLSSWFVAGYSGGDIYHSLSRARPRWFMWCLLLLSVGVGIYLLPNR
- Test: In vitro HCV replicase complex assay
- Details: crude membrane fraction of I389/NS3-3 replicon cells
- Excerpt: Crude membrane fraction containing the replicase complexes (RC) was isolated from the HCV subgenomic replicon cell line (I389/NS3-3) (Lohmann et al., Science 285:110-113, 1999) through Dounce homogenization and high-speed centrifugation (Lai et al., J. Virol. 73:2295-2300). […] Radioactivity incorporated into viral RNA was quantitated by using a Phosphorimager (Amersham Biosciences Corp., Piscataway, N.J.) and was used to determine the IC50 value. […]
Endpoint Label: IC50

Some solved cases for reference:
Compound | IC50
N#Cc1c(Nc2ccc(Cl)c(C(F)(F)F)c2)s[nH]c1=O [drawing 483] | 50 to 100 nM
N#Cc1c(O)nsc1Nc1cc(Cl)cc(Cl)c1 | < 50 nM
N#Cc1c(O)nsc1Nc1cc(C(F)(F)F)cc(C(F)(F)F)c1 | 100 to 250 nM
N#Cc1c(Nc2ccc(Br)cc2)s[nH]c1=O | < 50 nM

Kindly review the next compound as well.
Return reported IC50; argument: `N#Cc1c(O)nsc1Nc1ccc(Cl)cc1`
50 to 100 nM

These entries and their values trace back to patent US20060217390A1.
